Provenance of the data: PubChem BioAssay (NCI)

system: OVCAR-3 ovarian; assay: NCI-60 one-dose screen, 48 h; conditions: 10 µM unless noted
The panel holds about 83,000 compounds, 20% with a hit somewhere; the sample as a whole holds those more often. Activity calls are given as the source filed them. The calls were made as follows: active = growth percent below 10; inactive = the rest.
A correct response names exactly one class from class 1 (active), class 0 (inactive)

Observe how each entry below is paired with its result.
compound="CCC1S/C(=N\\N=C(\\C)c2cc3cc(Cl)ccc3o2)N(c2ccccc2)C1=O (configuration not stated)" assigned_class="class 0"
compound=Cc1ccc(/C=C/C(=O)c2cccc(OCCCOc3cccc(C(=O)/C=C/c4ccc(C)cc4)c3)c2)cc1 assigned_class="class 0"
compound=Cc1ccc(N2C(=O)CCC2=O)cc1 assigned_class="class 0"

Prompt: Look up the recorded call for `CCOC(=O)c1cc(C(=O)c2cc(OC)c(OC)c(OC)c2)n2ccccc12` in this test.
Completion: class 1

Prompt: Now this one: `CCN1CCN(CC(=O)Nc2ccc(-c3cn4c(n3)sc3cc(Oc5ccnc(C(=O)NC)c5)ccc34)cc2)CC1`
Completion: class 0

Prompt: Now this one: `COc1ccc(C(=O)Cn2c(C(=O)c3ccc(OC)cc3)nc3ccccc32)cc1`
Completion: class 1

Prompt: Now this one: N#CC1=C(N)Oc2ccc3ccccc3c2C1c1ccc([N+](=O)[O-])cc1 (configuration not stated)
Completion: class 0
